Where do the numbers come from? From PubChem BioAssay (NCI).

tested on: SNB-75 CNS; assay: NCI-60 one-dose screen, 48 h; conditions: 10 µM unless noted
Compounds without any hit were thinned out: in the full panel of roughly 83,000, 20% have a hit. Activity calls are given as the source filed them. The calls were made as follows: active = growth percent below 10; inactive = the rest.
Select the matching outcome among active, inactive

These solved cases illustrate the format of a correct answer.
Compound	Group label
COc1cc2c(cc1OCCCCCOc1ccc(-n3c(C)nc4ccccc4c3=O)cc1)N=C[C@@H]1CCCN1C2=O	active
COc1cc(NN=C(c2ccc(O)cc2)c2ccc(O)cc2)c([N+](=O)[O-])cc1[N+](=O)[O-]	inactive
C=C(C)[C@@H]1CC[C@]2(C(=O)NCCCCCCN(CCCN)CCCN)CC[C@]3(C)[C@H](CC[C@@H]4[C@@]5(C)CC[C@H](OCCCN)C(C)(C)[C@@H]5CC[C@]43C)[C@@H]12	inactive

Prompt: So what was the verdict on CCN(CC)CCCC(C)Nc1ccnc2cc(Cl)c(SCc3ccccc3)cc12 (stereo not given) in this test?
Response: active

Prompt: So what was the verdict on "O=C(Nc1ccc(Oc2ccc(F)cc2)c(Cl)c1)c1cccnn1" in this test?
Response: inactive

Prompt: So what was the verdict on "COC(=O)c1c(C)[nH]c(/C=C2\N=C(c3ccc[nH]3)C=C2OC)c1C" in this test?
Response: active

Prompt: So what was the verdict on "c1ccc2c(c1)CN(CCCN1CCOCC1)C2" in this test?
Response: inactive

Prompt: So what was the verdict on "Cc1ccc(S(=O)(=O)Nc2ccccc2)cc1N" in this test?
Response: inactive

Prompt: So what was the verdict on "COc1ccc(C(=O)CSc2nnc(-c3cc(-c4ccccc4)nc4ccccc34)o2)cc1" in this test?
Response: inactive

Prompt: So what was the verdict on "Cc1ccc(NC(=O)N[C@@H](Cc2cc(F)cc(F)c2)C(=O)N[C@@H]2C(=O)N3CCC[C@H]3C(=O)N3CCOC[C@H]3C(=O)N[C@@H](C)C(=O)N3C[C@H](C)C[C@H]3C(=O)O[C@H]2C)cc1" in this test?
Response: inactive

Prompt: So what was the verdict on "CC(C)=CC/C=C(/C)[C@H]1CC[C@]2(C)[C@@H]1CC[C@@H]1[C@@]3(C)CCCNC(C)(C)[C@@H]3CC[C@]12C" in this test?
Response: active

Prompt: So what was the verdict on "Nc1cc(NN=C(c2ccc(O)cc2)c2ccc(O)cc2)c([N+](=O)[O-])cc1[N+](=O)[O-]" in this test?
Response: inactive

Prompt: So what was the verdict on "C=C(C)[C@@H]1CC[C@]2(C(=O)NCCCN)CC[C@]3(C)[C@H](CC[C@@H]4[C@@]5(C)CC[C@H](O)C(C)(C)[C@@H]5CC[C@]43C)[C@@H]12" in this test?
Response: active

Prompt: So what was the verdict on "CC(C)OC(=O)Nc1cc(F)c(F)cc1F" in this test?
Response: inactive

Prompt: So what was the verdict on "CSc1nc(=S)c2nc(SC)n(-c3ccccc3)c2[nH]1" in this test?
Response: inactive

Prompt: So what was the verdict on COc1ccc(C2CC(c3ccc4ccccc4c3)=NN2c2nc(O)c(C3=c4cc(OC)ccc4=NC3=O)s2)cc1 (stereo not given) in this test?
Response: active

Prompt: So what was the verdict on "CC(C)c1ccc(C(=O)Nc2nc3ccc(O)cc3s2)cc1" in this test?
Response: inactive

Prompt: So what was the verdict on "O=C(CCNCc1ccccc1)c1ccccc1" in this test?
Response: inactive

Prompt: So what was the verdict on "COc1ccc(NCc2cn(-c3ccc(C(=O)O)cc3)nc2-c2ccc(C(=O)O)cc2)cc1C(F)(F)F" in this test?
Response: inactive

###

test system: SF-268 CNS; experiment: NCI-60 one-dose screen, 48 h; conditions: 10 µM unless noted
About 83,000 compounds went through this panel and 20% of them were active in at least one assay; those are over-represented in the sample as a whole. Calls of active or inactive are those of the source. Rule for the calls: active = growth percent below 10; inactive = the rest.
Select the matching outcome among 1 (active), -1 (inactive)

These solved cases illustrate the format of a correct answer.
Compound	Group label
C=C(C)[C@@H]1CC[C@]2(C(=O)NCCCCCCN(CCCN)CCCN)CC[C@]3(C)[C@H](CC[C@@H]4[C@@]5(C)CC[C@H](OCCCN)C(C)(C)[C@@H]5CC[C@]43C)[C@@H]12	-1
O=C(CCCSc1nc(-c2ccccc2)cc(-c2ccccc2)n1)NO	1
O=C1NC(=O)c2cc([N+](=O)[O-])cc3cccc1c23	-1
CCOC(=O)COc1c(C)cc(SSc2cc(C)c(OCC(=O)OCC)c(C)c2)cc1C	-1

Prompt: So what was the verdict on "CCCCOC(=O)c1cccc([N+](=O)[O-])c1" in this test?
Response: -1

Prompt: So what was the verdict on Nc1nc(N)c2c(n1)NC(c1ccc(F)cc1)C1CCc3ccccc3C1=N2 (configuration not stated) in this test?
Response: -1

Prompt: So what was the verdict on "Nc1nc(SCc2cccc([N+](=O)[O-])c2)c2[nH]cnc2n1" in this test?
Response: -1

###

test system: CAKI-1 renal; assay: NCI-60 one-dose screen, 48 h; details: 10 µM unless noted
The panel holds about 83,000 compounds, 20% with a hit somewhere; the sample as a whole holds those more often. The source made the active and inactive calls. How the source made its calls: active means growth percent below 10; inactive means the rest.
Select the matching outcome among Y (active), N (inactive)

These solved cases illustrate the format of a correct answer.
Structure as smiles	Group label
Fc1cc2[nH]ncc2c2c3c(c(-c4cn[nH]c4)nc12)CCCC3	Y
Cc1c(Cn2cc(COc3ccc(Br)cc3)nn2)c(C)c(Cn2cc(COc3ccc(Br)cc3)nn2)c(C)c1Cn1cc(COc2ccc(Br)cc2)nn1	N

--- query ---
Prompt: So what was the verdict on "CC(C)C1=NOC(=O)C1=Cc1cn(-c2ccccc2)nc1-c1cccc([N+](=O)[O-])c1" in this test?
Response: N

###

test system: OVCAR-4 ovarian; experiment: NCI-60 one-dose screen, 48 h; conditions: 10 µM
About 83,000 compounds went through this panel and 20% of them were active in at least one assay; those are over-represented in the sample as a whole. The source made the active and inactive calls. How the source made its calls: active means growth percent below 10; inactive means the rest.
Select the matching outcome among 1 (yes) (active), 0 (no) (inactive)

These solved cases illustrate the format of a correct answer.
Compound	Group label
COc1ccc2c(c1)c(-c1noc(-c3cn(C)c4ncc(F)cc34)n1)cn2C	0 (no)
CC1=CC[C@@H]2C(C)(C)[C@@H](O)CC[C@@]2(C)[C@@H]1COc1ccc2ccc(=O)oc2c1	0 (no)
Cc1ccc(-c2cn(C/C=C3\C=CN(S(=O)(=O)c4ccccc4)CC3)nn2)cc1	0 (no)
O=C(NCCCNC(=O)OCc1ccc2cccc(O)c2n1)OCc1ccc2cccc(O)c2n1	0 (no)
Cc1ccc(-c2cc(-c3ccc(C)cc3)nc(NCCNc3ccnc4cc(Cl)ccc34)n2)cc1	1 (yes)

Prompt: So what was the verdict on "COc1ccc(OC)c(NC=O)c1" in this test?
Response: 0 (no)

Prompt: So what was the verdict on "CCN(CC)c1cc(N)c(Cc2c(N)cc(N(CC)CC)cc2Cl)c(Cl)c1" in this test?
Response: 0 (no)

Prompt: So what was the verdict on CC1(C)OC2[C@@H](CNC(=O)NC(=O)NC(=O)CI)O[C@@H](n3cnc4c(NC(=O)Nc5ccccc5)ncnc43)[C@H]2O1 (some centres undefined) in this test?
Response: 0 (no)

Prompt: So what was the verdict on "COc1cc2c(cc1OCCCN1CCN(CCCOc3cc4c(cc3OC)C(=O)N3C[C@H](F)C[C@H]3C=N4)CC1)N=C[C@@H]1C[C@@H](F)CN1C2=O" in this test?
Response: 1 (yes)

Prompt: So what was the verdict on "CCN(CC)c1ccc(/C=C/C=C2\NC(=O)NC2=O)cc1" in this test?
Response: 0 (no)

Prompt: So what was the verdict on CC1(C(=O)O)CCC(N)(C(=O)O)C1(C)C (centres undefined) in this test?
Response: 0 (no)

Prompt: So what was the verdict on O=C(C[n+]1ccn(CC(OCc2ccc(Cl)cc2Cl)c2ccc(Cl)cc2Cl)c1)c1ccc(F)cc1 (centres undefined) in this test?
Response: 1 (yes)

Prompt: So what was the verdict on "C#C[C@]1(O)CC[C@H]2[C@@H]3CC=C4c5nc(Nc6ccccc6[N+](=O)[O-])sc5CC[C@]4(C)[C@H]3CC[C@@]21C" in this test?
Response: 0 (no)

Prompt: So what was the verdict on "CSc1nc(=S)c2nc(SC)n(-c3ccccc3)c2[nH]1" in this test?
Response: 0 (no)

Prompt: So what was the verdict on "Cc1nc(-c2ccccc2)sc1CC#N" in this test?
Response: 0 (no)

Prompt: So what was the verdict on "C=C1C(=O)O[C@H]2[C@H]1CC/C(COC(=O)NCc1ccc(Cn3c(=O)sn(-c4ccc(Cl)cc4)c3=O)cc1)=C\CC[C@@]1(C)O[C@@H]21" in this test?
Response: 0 (no)

Prompt: So what was the verdict on "Oc1ccc(N=Nc2nccs2)c(O)c1" in this test?
Response: 0 (no)

Prompt: So what was the verdict on O=C1/C(=C\c2cn(CC(O)CN3CCCCC3)c3ccccc23)c2ccccc2N1c1c(Cl)cccc1Cl (centres undefined) in this test?
Response: 1 (yes)

Prompt: So what was the verdict on CCN(CC)c1ccc2cc(NC(=O)OCCNC(=O)CCNC(=O)[C@H](CC(C)C)NC(=O)C(C)(C)NC(=O)C(C)(C)NC(=O)[C@H](CC(C)C)NC(=O)CCNC(=O)C(C)(C)NC(=O)[C@H](CC(C)C)NC(=O)CCNC(=O)[C@@](C)(CC)NC(=O)[C@H](C)NC(=O)CCNC(=O)C(C)(C)NC(=O)[C@H](C)NC(=O)[C@@H]3CCCN3C(=O)[C@@](C)(CC)NC(=O)[C@H](Cc3ccccc3)NC(=O)C3CCCN3C(=O)C(C)(C)NC(=O)C3CCCN3C(=O)C(C)(C)NC(C)=O)c(=O)oc2c1 (some centres undefined) in this test?
Response: 1 (yes)
